Entry source: ChEMBL document CHEMBL3232844

Test system: IGROV-1
protocol_summary: Cytotoxicity against human IGROV1 cells
Assay type: functional
experimental_parameters: read-out: pTGI (converted)
measurement_kind: TGI (µM)
Entry rule: numbers only, all in µM.

Asked: Look up and state reported TGI for COc1cc(/C=C/c2cc(OC)c3c(C/C=C(\C)CCC=C(C)C)c[nH]c3c2)cc2c1O[C@]1(C)CC[C@@H](O)C(C)(C)[C@H]1C2
Given back: 24

Asked: Please report the measured TGI for COc1cc(/C=C/c2cc(O)c3ccn(C)c3c2)cc2c1O[C@]1(C)CC[C@@H](O)C(C)(C)[C@H]1C2
Given back: 46.8

Asked: In one line, give reported TGI of the entry CC1(C)[C@H](O)CC[C@@]2(C)Oc3c(O)cc(/C=C/c4cc(O)c5cc[nH]c5c4)cc3C[C@H]12 .
Given back: 22.9

Asked: Give the reported TGI for this compound. COc1cc(/C=C/c2cc(O)c3c(CC=C(C)C)c[nH]c3c2)cc2c1O[C@]1(C)CC[C@@H](O)C(C)(C)[C@H]1C2
Given back: 50.1

Asked: Identify measured TGI corresponding to COc1cc(/C=C/c2cc(O)c3c(c2)C[C@@H]2C(C)(C)[C@H](O)CC[C@@]2(C)O3)cc2[nH]cc(CC=C(C)C)c12
Given back: 45.7

---

Task for the reader: assign each of the following molecules its reported GI50.
Test system: HOP-92
protocol_summary: Cytotoxicity against human HOP92 cells
Type: functional
Number in nM, nothing else.

Asked: Give the reported GI50 for this molecule. COc1cc(/C=C/c2cc(OC)c3c(C/C=C(\C)CCC=C(C)C)c[nH]c3c2)cc2c1O[C@]1(C)CC[C@@H](O)C(C)(C)[C@H]1C2
Given back: 302

Asked: Consider the molecule COc1cc(/C=C/c2cc(OC)c3c(CC=C(C)C)c[nH]c3c2)cc2c1O[C@]1(C)CC[C@@H](O)C(C)(C)[C@H]1C2 and give its recorded GI50.
Given back: 178

Asked: Supply measured GI50 of COc1cc(/C=C/c2cc(O)c3ccn(C)c3c2)cc2c1O[C@]1(C)CC[C@@H](O)C(C)(C)[C@H]1C2 in your reply.
Given back: 525

Asked: Look up GI50 of CC1(C)[C@H](O)CC[C@@]2(C)Oc3c(O)cc(/C=C/c4cc(O)c5cc[nH]c5c4)cc3C[C@H]12 and report it.
Given back: 501

---

Test system: LOX IMVI
protocol_summary: Cytotoxicity against human LOXIMVI cells
Assay type: functional
experimental_parameters: read-out: pLC50 (the source's name) (converted)
measurement_kind: CC50 (µM)
Provide the reading as a plain figure in µM.

Asked: For the compound COc1cc(/C=C/c2cc(OC)c3c(C/C=C(\C)CCC=C(C)C)c[nH]c3c2)cc2c1O[C@]1(C)CC[C@@H](O)C(C)(C)[C@H]1C2 , report CC50.
Given back: 7.59

Asked: Hello, please tell me recorded CC50 for this one: COc1cc(/C=C/c2cc(O)c3c(c2)C[C@@H]2C(C)(C)[C@H](O)CC[C@@]2(C)O3)cc2[nH]cc(CC=C(C)C)c12
Given back: 30.9

Asked: Answer with the recorded CC50 of COc1cc(/C=C/c2cc(O)c3cc[nH]c3c2)cc2c1O[C@]1(C)CC[C@@H](O)C(C)(C)[C@H]1C2 only.
Given back: 4.57

Asked: Answer with reported CC50 of CC1(C)[C@H](O)CC[C@@]2(C)Oc3c(O)cc(/C=C/c4cc(O)c5cc[nH]c5c4)cc3C[C@H]12
Given back: 5.62
